Hello, the source for this data is paper PMC8820617, in case you need it.

target: CYP2C9 supersomes (Homo sapiens); experiment: Inhibition of CYP2C9 on recombinant supersomes (diclofenac 4-hydroxylation, LC/MS-MS); conditions: IC50 values determined with CYP2C9 supersomes, substrate diclofenac 5 μM; recombinant supersomes
Endpoint: pIC50
One number for each entry, as −log10 of the molar value.

Previously resolved entries follow.
O=c1[nH]c2ccccc2c(=O)n1CCCN1CCN(c2cccc(Cl)c2)CC1; 4.75
CCCSc1nc(N[C@@H]2C[C@H]2c2ccc(F)c(F)c2)c2nnn([C@@H]3C[C@H](OCCO)[C@@H](O)[C@H]3O)c2n1; 4.93

Batch request: pIC50 for each of the following compounds.
1. O=C1NCCN1CCN1CCC(c2cn(-c3ccc(F)cc3)c3ccc(Cl)cc23)CC1
2. C[C@H](Nc1ncnc2[nH]cnc12)c1cc2cccc(Cl)c2c(=O)n1-c1ccccc1
3. Cc1ccccc1-n1c(/C=C/c2ccccn2)nc2ccccc2c1=O
4. CC(C)Oc1ccc(S(=O)(=O)N2CCN(c3ccc(-c4ncco4)c(OCC(=O)O)c3)CC2)cc1

Ans:
1: 4.40; 2: 4.28; 3: 4.96; 4: 4.34

---

biological target: CYP2C9 (Homo sapiens); assay: Inhibition of CYP2C9 activity in HepG2 cells expressing CYP2C9 (P450-Glo CYP2C9 assay with Luciferin-H); details: HepG2 cells expressing CYP2C9; concentration range with cell viability > 80%
Sequence (P11712 whole entry): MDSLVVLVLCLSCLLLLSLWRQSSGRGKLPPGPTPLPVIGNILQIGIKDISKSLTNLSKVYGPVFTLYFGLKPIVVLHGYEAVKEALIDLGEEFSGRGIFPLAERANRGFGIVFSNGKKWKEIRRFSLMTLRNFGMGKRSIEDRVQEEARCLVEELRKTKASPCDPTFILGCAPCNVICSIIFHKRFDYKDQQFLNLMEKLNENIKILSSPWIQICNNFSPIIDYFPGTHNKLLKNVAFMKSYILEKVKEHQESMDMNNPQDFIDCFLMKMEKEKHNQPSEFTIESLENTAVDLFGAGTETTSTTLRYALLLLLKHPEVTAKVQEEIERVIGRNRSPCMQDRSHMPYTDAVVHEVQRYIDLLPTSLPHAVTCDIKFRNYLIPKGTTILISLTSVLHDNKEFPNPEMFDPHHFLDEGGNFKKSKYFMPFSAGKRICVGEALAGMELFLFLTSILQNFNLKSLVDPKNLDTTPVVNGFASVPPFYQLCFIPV
Endpoint: Inhibition of CYP2C9 activity in HepG2 cells (yes/no)

The examples below pair each entry with its known result.
CN(c1ncccc1CNc1nc(Nc2ccc3c(c2)CC(=O)N3)ncc1C(F)(F)F)S(C)(=O)=O; yes
Cc1nc(Nc2ncc(C(=O)Nc3c(C)cccc3Cl)s2)cc(N2CCN(CCO)CC2)n1; yes
O=c1[nH]c2ccccc2c(=O)n1CCCN1CCN(c2cccc(Cl)c2)CC1; yes
O=C1NCCN1CCN1CCC(c2cn(-c3ccc(F)cc3)c3ccc(Cl)cc23)CC1; yes
CCCSc1nc(N[C@@H]2C[C@H]2c2ccc(F)c(F)c2)c2nnn([C@@H]3C[C@H](OCCO)[C@@H](O)[C@H]3O)c2n1; yes
CC(C)(C)C(=O)Oc1ccc(S(=O)(=O)Nc2ccccc2C(=O)NCC(=O)O)cc1; no
Clc1ccc(Nc2nnc(Cc3ccncc3)c3ccccc23)cc1; yes
CC(C)Oc1ccc(S(=O)(=O)N2CCN(c3ccc(-c4ncco4)c(OCC(=O)O)c3)CC2)cc1; yes
CC(=O)N1CCN(CCOc2ccc(C3CCN(C4=Nn5c(nnc5C(F)(F)F)CC4)CC3)cc2)CC1; no

Kindly review the next compound as well.
# Inhibition of CYP2C9 activity in HepG2 cells (yes/no) (compound: Cc1ccccc1-n1c(/C=C/c2ccccn2)nc2ccccc2c1=O ) is yes

---

target: CYP2C9 (Homo sapiens); assay: Inhibition of CYP2C9 activity in HepG2 cells expressing CYP2C9 (P450-Glo CYP2C9 assay with Luciferin-H); conditions: HepG2 cells expressing CYP2C9; concentration range with cell viability > 80%
Endpoint: Inhibition of CYP2C9 activity in HepG2 cells (yes/no)

CN(c1nccc(=O)[nH]1)C1CCN(c2nc3ccccc3n2Cc2ccc(F)cc2)CC1; no
COc1ccc(OC(=O)N(CC(=O)O)Cc2ccc(OCCc3nc(-c4ccccc4)oc3C)cc2)cc1; no
C[C@H](Nc1ncnc2[nH]cnc12)c1cc2cccc(Cl)c2c(=O)n1-c1ccccc1; yes
CCN1CCN(Cc2ccc(Nc3ncc(F)c(-c4cc(F)c5nc(C)n(C(C)C)c5c4)n3)nc2)CC1; no

---

system: HepG2 cells expressing CYP2C9; test: Cytotoxicity (MTS assay) in HepG2 cells expressing CYP2C9; details: MTS assay; threshold cell viability 80%; compared with wild-type HepG2 cells
Endpoint: Increased cytotoxicity in HepG2 cells expressing CYP2C9 (yes/no)

CC(C)(C)C(=O)Oc1ccc(S(=O)(=O)Nc2ccccc2C(=O)NCC(=O)O)cc1 [Sivelestat]; no
CC(C)Oc1ccc(S(=O)(=O)N2CCN(c3ccc(-c4ncco4)c(OCC(=O)O)c3)CC2)cc1 [Asapiprant]; no
CC(=O)N1CCN(CCOc2ccc(C3CCN(C4=Nn5c(nnc5C(F)(F)F)CC4)CC3)cc2)CC1 [Azd3514]; yes
C[C@H](Nc1ncnc2[nH]cnc12)c1cc2cccc(Cl)c2c(=O)n1-c1ccccc1 [Duvelisib]; no
Cc1ccccc1-n1c(/C=C/c2ccccn2)nc2ccccc2c1=O [Piriqualone]; yes

Recorded Increased cytotoxicity in HepG2 cells expressing CYP2C9 (yes/no) (compound CCCSc1nc(N[C@@H]2C[C@H]2c2ccc(F)c(F)c2)c2nnn([C@@H]3C[C@H](OCCO)[C@@H](O)[C@H]3O)c2n1 [Ticagrelor] ): no

---

test system: HepG2 cells expressing CYP2C9; experiment: Cytotoxicity (MTS assay) in HepG2 cells expressing CYP2C9; conditions: at min [c] of the compound; MTS assay
Endpoint: % living HepG2 cells expressing CYP2C9 after incubation with the min [c] (%)
Answers are plain numbers, in %.

O=c1[nH]c2ccccc2c(=O)n1CCCN1CCN(c2cccc(Cl)c2)CC1; 40

Here are 8 compounds. What values of % living HepG2 cells expressing CYP2C9 after incubation with the min [c] were reported for them?
1. CCN1CCN(Cc2ccc(Nc3ncc(F)c(-c4cc(F)c5nc(C)n(C(C)C)c5c4)n3)nc2)CC1
2. O=C1NCCN1CCN1CCC(c2cn(-c3ccc(F)cc3)c3ccc(Cl)cc23)CC1
3. CN(c1ncccc1CNc1nc(Nc2ccc3c(c2)CC(=O)N3)ncc1C(F)(F)F)S(C)(=O)=O
4. CC(=O)N1CCN(CCOc2ccc(C3CCN(C4=Nn5c(nnc5C(F)(F)F)CC4)CC3)cc2)CC1
5. Cc1ccccc1-n1c(/C=C/c2ccccn2)nc2ccccc2c1=O
6. Clc1ccc(Nc2nnc(Cc3ccncc3)c3ccccc23)cc1
7. Cc1nc(Nc2ncc(C(=O)Nc3c(C)cccc3Cl)s2)cc(N2CCN(CCO)CC2)n1
8. CN(c1nccc(=O)[nH]1)C1CCN(c2nc3ccccc3n2Cc2ccc(F)cc2)CC1

Ans:
[30, 60, 65, 60, 0, 50, 45, 60]

---

system: HepG2 cells expressing CYP2C9; experiment: Cytotoxicity (MTS assay) in HepG2 cells expressing CYP2C9; settings: HepG2 cells expressing CYP2C9; threshold cell viability 80%
Answer each item with its documented min [c]: minimal concentration that increases the cytotoxicity.

Cc1nc(Nc2ncc(C(=O)Nc3c(C)cccc3Cl)s2)cc(N2CCN(CCO)CC2)n1; 20 µM
CN(c1nccc(=O)[nH]1)C1CCN(c2nc3ccccc3n2Cc2ccc(F)cc2)CC1; 50 µM
CN(c1ncccc1CNc1nc(Nc2ccc3c(c2)CC(=O)N3)ncc1C(F)(F)F)S(C)(=O)=O; 10 µM
O=C1NCCN1CCN1CCC(c2cn(-c3ccc(F)cc3)c3ccc(Cl)cc23)CC1; 10 µM
O=c1[nH]c2ccccc2c(=O)n1CCCN1CCN(c2cccc(Cl)c2)CC1; 100 µM

Lab note: each molecule below needs its min [c]: minimal concentration that increases the cytotoxicity filled in.
1. CCN1CCN(Cc2ccc(Nc3ncc(F)c(-c4cc(F)c5nc(C)n(C(C)C)c5c4)n3)nc2)CC1
2. CC(=O)N1CCN(CCOc2ccc(C3CCN(C4=Nn5c(nnc5C(F)(F)F)CC4)CC3)cc2)CC1
3. Clc1ccc(Nc2nnc(Cc3ccncc3)c3ccccc23)cc1
4. Cc1ccccc1-n1c(/C=C/c2ccccn2)nc2ccccc2c1=O

Ans:
1: 5 µM; 2: 20 µM; 3: 20 µM; 4: 75 µM

---

molecular target: CYP2C9 (Homo sapiens); assay: Inhibition of CYP2C9 activity in HepG2 cells expressing CYP2C9 (P450-Glo CYP2C9 assay with Luciferin-H); conditions: HepG2 cells expressing CYP2C9; five-step dilution series 0.5 to 50 μM
Endpoint: Dose-dependent inhibition (yes/no)

Some solved entries appear below for comparison.
CC(C)(C)C(=O)Oc1ccc(S(=O)(=O)Nc2ccccc2C(=O)NCC(=O)O)cc1 [Sivelestat]; no
CC(C)Oc1ccc(S(=O)(=O)N2CCN(c3ccc(-c4ncco4)c(OCC(=O)O)c3)CC2)cc1 [Asapiprant]; yes
Cc1nc(Nc2ncc(C(=O)Nc3c(C)cccc3Cl)s2)cc(N2CCN(CCO)CC2)n1 [Dasatinib]; yes
CN(c1nccc(=O)[nH]1)C1CCN(c2nc3ccccc3n2Cc2ccc(F)cc2)CC1 [Mizolastine]; no

Report Dose-dependent inhibition (yes/no) for each item below.
1. O=c1[nH]c2ccccc2c(=O)n1CCCN1CCN(c2cccc(Cl)c2)CC1 [Cloperidone]
2. CCN1CCN(Cc2ccc(Nc3ncc(F)c(-c4cc(F)c5nc(C)n(C(C)C)c5c4)n3)nc2)CC1 [Abemaciclib]
3. Cc1ccccc1-n1c(/C=C/c2ccccn2)nc2ccccc2c1=O [Piriqualone]
4. Clc1ccc(Nc2nnc(Cc3ccncc3)c3ccccc23)cc1 [Vatalanib]
5. COc1ccc(OC(=O)N(CC(=O)O)Cc2ccc(OCCc3nc(-c4ccccc4)oc3C)cc2)cc1 [Muraglitazar]
6. O=C1NCCN1CCN1CCC(c2cn(-c3ccc(F)cc3)c3ccc(Cl)cc23)CC1 [Sertindole]

Ans:
yes
no
yes
yes
no
yes
